# System: MCF-7 cells
# protocol notes: Test 1: growth inhibition of MCF-7 human breast cancer cells
# Format: cell-based
# test context: Homo sapiens, MCF7, 72 hours culture with sample, read-out: GI50 (50% growth inhibition concentration)
GI50 under 200 nM gets 1, anything at or over 200 nM gets 0.

- compound: "c1cn(-c2nc(N3CCOCC3)nc(N3CCOCC3)n2)cn1 [compound C, reference compound]"
  group: 0
- compound: "C[C@@H]1OCCN(c2cc(N3CCOCC3)nc(-n3c(NC=O)nc4ccccc43)n2)[C@H]1C (relative stereo)"
  group: 1
- compound: "C[C@@H]1COC(C)(C)CN1c1nc(N2CCOCC2)nc(-n2c(C(F)F)nc3ccccc32)n1"
  group: 0
- compound: "CC1(C)CN(c2nc(N3CCOCC3)nc(-n3c(C(F)F)nc4c(O)cccc43)n2)CCO1"
  group: 1
- compound: "C[C@@H]1OCCN(c2cc(N3CCOCC3)nc(-n3cnc4ccccc43)n2)[C@H]1C (relative stereo)"
  group: 0
- compound: "CC1(C)CN(c2cc(N3CCOCC3)nc(-n3c(C(F)F)nc4ccccc43)n2)CCO1"
  group: 0
- compound: "CCC(=O)Nc1nc2ccccc2n1-c1nc(N2CCOCC2)nc(N2CCO[C@@H](C)[C@@H]2C)n1 (relative stereo)"
  group: 1
